# protein stability index per record follows
B1: HESX1 (parent)
chain: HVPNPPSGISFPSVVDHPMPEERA

# Variants of: B1
# Measurement protocol: protein stability index of a GFP-peptide fusion (GPS, HEK-293T) (PSI 1-6); higher = more stable;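 further: lentivirally expressed fusions sorted by FACS into six bins by GFP to DsRed ratio, PSI derived from sequencing read proportions per bin multiplied by bin number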
# Condition: c terminus: a fixed tail appended
Give the value as a plain number.

Recorded protein stability index, per entry:
Mutation string | protein stability index
E21P | 2.06
V15Q | 3.63

I have this variant here, `P5Q` , and I need its recorded protein stability index.
3.5

What would you report for `E22V` ?
2.16

What would you report for `D16R` ?
2.51

What would you report for `S7W` ?
1.71

What would you report for `P18E` ?
2.85

What would you report for `H1E` ?
5.06

What would you report for `H17P` ?
2.11
